Origin of values: the Immune Epitope Database (IEDB)

Target: HLA-A*02:03
Test: IEDB peptide-MHC binding, purified MHC/competitive/radioactivity; filed as Kd, often an IC50 or EC50 that approximates it; bounds were set here for any values at or beyond the usual limits of such assays
Settings: source organism: Dengue virus 3 Martinique/1243/1999
PARAMETER: Kd (nM)
Numbers only; they are read as nM.

Which measured Kd value corresponds to GLMILLTGGA ?
23.1

Follow-up item: VLLKTALLIV
40.1

Follow-up item: WMTTEDMLTV
37.5

###

Molecular target: HLA-A*11:01
Experiment: IEDB peptide-MHC binding, purified MHC/competitive/radioactivity; filed as Kd, often an IC50 or EC50 that approximates it; bounds were set here for any values at or beyond the usual limits of such assays
Details: source organism: Mammarenavirus brazilense
PARAMETER: pKd
Please treat pKd as minus the base-10 logarithm of the molar concentration.

Form field - read-out: pKd; system: HLA-A*11:01; submitted item: CSSLTEEFYH
5.06

###

Biological target: HLA-B*46:01
Experiment: IEDB peptide-MHC binding, purified MHC/competitive/fluorescence; filed as Kd, often an IC50 or EC50 that approximates it; bounds were set here for any values at or beyond the usual limits of such assays
Details: source organism: Shigella boydii CDC 3083-94
PARAMETER: Kd

Which measured Kd value corresponds to RNNDPTLPY ?
≥ 20 µM

###

Target: HLA-A*03:01
Assay: IEDB peptide-MHC binding, purified MHC/direct/fluorescence; filed as Kd, often an IC50 or EC50 that approximates it; bounds were set here for any values at or beyond the usual limits of such assays
Conditions: source organism: Rickettsia bellii OSU 85-389
pKd: −log10 of the molar value.
PARAMETER: pKd

Which measured pKd value corresponds to EDFEIFYNL ?
≤ 4.70

###

Kindly state pKd for each of the entries shown.
Target: HLA-A*24:02
Test: IEDB peptide-MHC binding, purified MHC/competitive/radioactivity; filed as Kd, often an IC50 or EC50 that approximates it; bounds were set here for any values at or beyond the usual limits of such assays
Settings: source organism: SARS coronavirus Tor2
pKd: −log10 of the molar value.

Form field - read-out: pKd; system: HLA-A*24:02; submitted item: TYHPNCINCL
6.18

Follow-up item: LAAEWVLAY
≤ 4.39

Follow-up item: DSKEGFFTY
≤ 4.11

Follow-up item: EHSWNADLY
≤ 4.11

Follow-up item: VYALCTLLHL
7.12

Follow-up item: YYSLLMPIL
≤ 4.11

Follow-up item: TSSGDATTAY
≤ 4.15

Follow-up item: HHANEYRQY
≤ 4.48

Follow-up item: ILSDDAVVCY
≤ 4.15

Follow-up item: HMVVKSALL
4.91

Follow-up item: NQDLNGNWY
≤ 4.11

Follow-up item: RFLYIIKLVF
7.88

Follow-up item: DEEGNLLDSY
≤ 4.15

Follow-up item: FYFTNDVSF
5.55

Follow-up item: GFELTSMKY
≤ 4.11

Follow-up item: DYAEISFML
≤ 3.98

Follow-up item: LLEIKDKEQY
4.96

Follow-up item: EWSVATFYLF
7.57

Follow-up item: YIESKRGVY
≤ 4.11

Follow-up item: IFFASFYYIW
7.61

Follow-up item: HSYGIDLKSY
≤ 4.25

###

Target: HLA-A*03:01
Experiment: IEDB peptide-MHC binding, purified MHC/competitive/radioactivity; filed as Kd, often an IC50 or EC50 that approximates it; bounds were set here for any values at or beyond the usual limits of such assays
Details: source organism: Homo sapiens
PARAMETER: Kd (nM)
Numbers only; they are read as nM.

Which measured Kd value corresponds to RINGIPQQH ?
110

###

Target: HLA-A*02:06
Assay: IEDB peptide-MHC binding, purified MHC/competitive/fluorescence; filed as Kd, often an IC50 or EC50 that approximates it; bounds were set here for any values at or beyond the usual limits of such assays
Settings: source organism: Bacillus anthracis str. A0389
PARAMETER: Kd (nM)
Numbers only; they are read as nM.

Which measured Kd value corresponds to FTDNNELEF ?
0.2

###

Molecular target: HLA-A*69:01
Assay: IEDB peptide-MHC binding, purified MHC/direct/fluorescence; filed as Kd, often an IC50 or EC50 that approximates it; bounds were set here for any values at or beyond the usual limits of such assays
Conditions: source organism: Salmonella enterica
PARAMETER: Kd

Form field - read-out: Kd; system: HLA-A*69:01; submitted item: AHSKAETEA
≥ 20 µM

###

Biological target: HLA-B*40:01
Experiment: IEDB peptide-MHC binding, purified MHC/direct/fluorescence; filed as Kd, often an IC50 or EC50 that approximates it; bounds were set here for any values at or beyond the usual limits of such assays
Details: source organism: Orthohantavirus andesense
PARAMETER: pKd
Please treat pKd as minus the base-10 logarithm of the molar concentration.

Which measured pKd value corresponds to LEEDIQHFL ?
9.70

###

Kindly state Kd for each of the entries shown.
Target: HLA-A*02:03
Test: IEDB peptide-MHC binding, purified MHC/competitive/radioactivity; filed as Kd, often an IC50 or EC50 that approximates it; bounds were set here for any values at or beyond the usual limits of such assays
Details: source organism: Mammarenavirus brazilense

Which measured Kd value corresponds to ICFWSTLFFT ?
≥ 35.1 µM

Follow-up item: LNISGYNYSL
≥ 49 µM

###

Target: HLA-C*05:01
Test: IEDB peptide-MHC binding, purified MHC/direct/fluorescence; filed as Kd, often an IC50 or EC50 that approximates it; bounds were set here for any values at or beyond the usual limits of such assays
Settings: source organism: Vaccinia virus Copenhagen
PARAMETER: pKd
Please treat pKd as minus the base-10 logarithm of the molar concentration.

Form field - read-out: pKd; system: HLA-C*05:01; submitted item: YFDDVTAFL
7.85

###

Target: HLA-A*33:01
Test: IEDB peptide-MHC binding, purified MHC/competitive/radioactivity; filed as Kd, often an IC50 or EC50 that approximates it; bounds were set here for any values at or beyond the usual limits of such assays
Conditions: source organism: Dengue virus 4 Dominica/814669/1981
PARAMETER: pKd
Please treat pKd as minus the base-10 logarithm of the molar concentration.

Which measured pKd value corresponds to MTLMKGASRR ?
7.16

###

Biological target: HLA-A*02:01
Assay: IEDB peptide-MHC binding, purified MHC/direct/fluorescence; filed as Kd, often an IC50 or EC50 that approximates it; bounds were set here for any values at or beyond the usual limits of such assays
Details: source organism: Mammarenavirus machupoense
PARAMETER: Kd

Which measured Kd value corresponds to LITEQFLCY ?
≥ 20 µM

###

Biological target: HLA-A*02:03
Assay: IEDB peptide-MHC binding, purified MHC/competitive/radioactivity; filed as Kd, often an IC50 or EC50 that approximates it; bounds were set here for any values at or beyond the usual limits of such assays
Settings: source organism: Dengue virus 1 Brazil/97-11/1997
PARAMETER: Kd (nM)
Numbers only; they are read as nM.

Which measured Kd value corresponds to SMTCIAVGMV ?
21.5

Follow-up item: TAYGVLFSGV
16.1

Follow-up item: LTAAVLMLV
11.8

Follow-up item: TLIAMDLGEL
12.6

###

Target: HLA-A*02:12
Assay: IEDB peptide-MHC binding, purified MHC/direct/fluorescence; filed as Kd, often an IC50 or EC50 that approximates it; bounds were set here for any values at or beyond the usual limits of such assays
Conditions: source organism: Orthohantavirus andesense
PARAMETER: Kd

Which measured Kd value corresponds to LEEDIQHFL ?
≥ 20 µM

###

Target: HLA-A*02:03
Assay: IEDB peptide-MHC binding, purified MHC/competitive/radioactivity; filed as Kd, often an IC50 or EC50 that approximates it; bounds were set here for any values at or beyond the usual limits of such assays
Conditions: source organism: Lassa virus Josiah
PARAMETER: pKd
Please treat pKd as minus the base-10 logarithm of the molar concentration.

Which measured pKd value corresponds to GLYKQPGVPV ?
7.62

###

Target: HLA-B*44:02
Test: IEDB peptide-MHC binding, purified MHC/direct/fluorescence; filed as Kd, often an IC50 or EC50 that approximates it; bounds were set here for any values at or beyond the usual limits of such assays
Conditions: source organism: Yellow fever virus strain Ghana/Asibi/1927
PARAMETER: Kd

Which measured Kd value corresponds to AIHPFALLL ?
≥ 20 µM

###

Molecular target: HLA-A*29:02
Experiment: IEDB peptide-MHC binding, purified MHC/competitive/radioactivity; filed as Kd, often an IC50 or EC50 that approximates it; bounds were set here for any values at or beyond the usual limits of such assays
Conditions: source organism: SARS coronavirus Tor2
Binarize Kd at 300 nM; below is Fulfilled, at or above is Not fulfilled.

I'd appreciate it if you could check whether HSYGIDLKSY has Kd smaller than 300 nM.
Fulfilled

Follow-up item: LLEIKDKEQY
Not fulfilled

Follow-up item: YIESKRGVY
Fulfilled

Follow-up item: LAAEWVLAY
Fulfilled

Follow-up item: EWSVATFYLF
Fulfilled

Follow-up item: VYALCTLLHL
Not fulfilled

Follow-up item: HMVVKSALL
Not fulfilled

Follow-up item: YYSLLMPIL
Not fulfilled

Follow-up item: DSKEGFFTY
Not fulfilled
